The reported numbers originate from patent US10988477B2.

target: GCN2 kinase (Homo sapiens, UniProt Q9P2K8); experiment: GCN2 enzyme inhibition assay (Transcreener ADP2 fluorescence polarization); type: biochemical; settings: compounds of Formula II; 280 μM ATP, 4 nM GCN2 kinase
Sequence (Q9P2K8 whole entry): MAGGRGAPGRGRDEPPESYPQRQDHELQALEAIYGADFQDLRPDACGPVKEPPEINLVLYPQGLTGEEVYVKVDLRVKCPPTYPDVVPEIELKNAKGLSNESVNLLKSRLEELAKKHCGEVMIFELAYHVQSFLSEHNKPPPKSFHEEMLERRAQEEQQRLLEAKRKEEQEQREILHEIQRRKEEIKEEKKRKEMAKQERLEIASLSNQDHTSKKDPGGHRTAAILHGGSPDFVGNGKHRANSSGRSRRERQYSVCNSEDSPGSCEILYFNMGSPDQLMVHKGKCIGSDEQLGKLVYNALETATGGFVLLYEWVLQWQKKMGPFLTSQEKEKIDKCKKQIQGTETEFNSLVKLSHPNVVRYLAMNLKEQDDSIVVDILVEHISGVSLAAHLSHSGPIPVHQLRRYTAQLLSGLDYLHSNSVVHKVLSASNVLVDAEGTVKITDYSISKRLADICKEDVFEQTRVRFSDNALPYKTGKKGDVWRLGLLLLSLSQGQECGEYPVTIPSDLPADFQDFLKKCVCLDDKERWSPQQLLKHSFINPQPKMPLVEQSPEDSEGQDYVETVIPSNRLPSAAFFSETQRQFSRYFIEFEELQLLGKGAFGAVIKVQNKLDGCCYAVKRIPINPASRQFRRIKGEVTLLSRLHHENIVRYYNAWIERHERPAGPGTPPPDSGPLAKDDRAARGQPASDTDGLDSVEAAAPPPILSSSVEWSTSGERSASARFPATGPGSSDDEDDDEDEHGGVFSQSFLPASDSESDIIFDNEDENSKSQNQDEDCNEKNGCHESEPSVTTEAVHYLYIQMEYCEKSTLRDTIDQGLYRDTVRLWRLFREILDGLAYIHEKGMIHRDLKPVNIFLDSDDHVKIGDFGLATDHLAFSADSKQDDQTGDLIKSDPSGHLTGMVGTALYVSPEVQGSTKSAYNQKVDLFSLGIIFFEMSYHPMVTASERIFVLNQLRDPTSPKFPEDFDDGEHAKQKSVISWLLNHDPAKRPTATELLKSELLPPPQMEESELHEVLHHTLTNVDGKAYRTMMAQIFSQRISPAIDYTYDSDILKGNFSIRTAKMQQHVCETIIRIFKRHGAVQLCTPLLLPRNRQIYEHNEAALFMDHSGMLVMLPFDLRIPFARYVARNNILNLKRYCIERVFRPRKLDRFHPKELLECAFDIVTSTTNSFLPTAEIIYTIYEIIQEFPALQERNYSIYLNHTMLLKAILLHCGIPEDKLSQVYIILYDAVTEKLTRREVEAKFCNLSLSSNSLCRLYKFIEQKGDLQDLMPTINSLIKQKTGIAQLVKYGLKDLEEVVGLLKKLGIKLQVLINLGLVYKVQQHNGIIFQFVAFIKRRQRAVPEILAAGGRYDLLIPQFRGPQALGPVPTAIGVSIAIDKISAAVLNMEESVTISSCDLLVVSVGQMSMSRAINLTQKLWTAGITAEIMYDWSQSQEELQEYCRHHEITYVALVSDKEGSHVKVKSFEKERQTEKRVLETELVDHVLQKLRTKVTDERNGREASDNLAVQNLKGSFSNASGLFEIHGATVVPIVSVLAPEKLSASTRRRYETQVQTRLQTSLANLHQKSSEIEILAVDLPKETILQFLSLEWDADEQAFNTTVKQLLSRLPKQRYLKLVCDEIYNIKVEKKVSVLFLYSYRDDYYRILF
measure.name: Ki

{"columns": ["compound", "Ki"],
 "data": [
  ["CC1C(CNS(C)(=O)=O)C(F)(F)C(C)CN1c1cc(-c2cnc3ccc(C(F)F)nn23)ncn1 (single isomer, unassigned) [II-468]", "10 to 1000 nM"],
  ["NC(=O)[C@H]1CCCN(c2cc(-c3cnc4ccc(Cl)nn34)ccn2)C1", "10 to 1000 nM"],
  ["CC1C(CNS(C)(=O)=O)OC(C)(C)CN1c1cc(-c2cnc3ccc(C(F)F)nn23)ncn1 (single isomer, unassigned) [II-484]", "10 to 1000 nM"],
  ["O=C1CN(CC2CCN(c3cc(-c4cnc5ccc(C(F)F)nn45)ncn3)C2)CCN1 (stereo not drawn)", "10 to 1000 nM"],
  ["CCC1COC(CNS(C)(=O)=O)CN1c1cc(-c2cnc3ccc(C(F)F)nn23)ncn1 (stereo not drawn) [II-267]", "10 to 1000 nM"]
]}

Data request: Lab note: need Ki for CS(=O)(=O)NC(=O)C1CCCN(c2cc(-c3cnc4ccc(C(F)F)nn34)ncn2)C1 (stereo not drawn) on GCN2 kinase (Homo sapiens, UniProt Q9P2K8), anyone have it?
Data returned: 10 to 1000 nM

Data request: Ok, now CS(=O)(=O)NCC1CCCN(c2cc(-c3cnc4ccc(C(F)F)nn34)cnc2CN)C1 (stereo not drawn)
Data returned: 10 to 1000 nM

Data request: Moving on to CC(=O)N1CCN(c2cccc(-c3cnc4ccc(C(F)F)nn34)c2)CC1
Data returned: 10 to 1000 nM

Data request: Another compound to check: CC1CCC(CNS(C)(=O)=O)CN1c1cc(-c2cnc3ccc(C(F)F)nn23)ncn1 (stereo not drawn) [II-248]
Data returned: 10 to 1000 nM
